Exercise: state measured inhibition for each of the compounds provided.
# target of assay: L-lactate dehydrogenase (Plasmodium falciparum (isolate CDC / Honduras))
# method: PfLDH activity inhibition – cell lysate, 3D7 strain, counter-screen for P. falciparum growth inhibition project (AID 2304);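 further: 0% = vehicle and 100% = reference inhibitor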
# condition set: P. falciparum 3D7 crude extract, LDH APAD/NBT absorbance; at 2 µM; active compounds read high
One number for each entry, in %.

compound | inhibition, %
CCCCCCNC[C@@H](O)[C@H](Cc1ccccc1)NC(=O)c1cc(NCC)cc(N2CCCCS2(=O)=O)c1 | -5
Cc1cccc2[nH]c(-c3cccc(-c4ccc(NC(=O)c5cccc(C(N)=O)c5)cc4)c3)nc12 | 4
Cn1cncc1C(=O)NC1CCN(c2ccnc(Nc3ccc(F)cc3)n2)C1 (centres undefined) | -7
C=CCOC(=O)O[C@@H]1[C@@H](OC(=O)OCC=C)[C@@H](OC)O[C@H](COC(c2ccccc2)(c2ccccc2)c2ccccc2)[C@H]1OC(=O)OCC=C | 2
Cc1ccc(C)c(Cn2ccc3nc(N)nc(N)c32)c1 | -1

I would be grateful if you could provide inhibition for each of the following entries.
1. Cc1cc2cc(NC(=O)Nc3ccnc4ccccc34)ccc2n1C
2. COc1ccc2ncc(F)c(CCN3CCC[C@H](CNCc4ccc5c(n4)NC(=O)CS5)C3)c2n1

OUTPUT:
1. 4
2. 3

I would be grateful if you could provide inhibition for each of the following entries.
1. CCCCC([C@@H](Cc1ccc2ccccc2c1)C(=O)N[C@H](C(=O)NC)C(C)(C)C)N(O)C=O (some centres undefined)
2. O=C(/C=C/c1ccc(Cl)cc1)NCCCCCN1CCN(C(=O)C=Cc2ccc(Cl)c(Cl)c2)CC1
3. COc1ccc2ncc(F)c([C@H](O)CN3CCC(NCc4ccc5c(c4)OCCO5)CC3)c2c1
4. Nc1ccc(-c2nc3ccc(Oc4ccc5nc(-c6ccc(N)cc6)[nH]c5c4)cc3[nH]2)cc1

OUTPUT:
1. 5
2. 5
3. -5
4. 7

I would be grateful if you could provide inhibition for each of the following entries.
1. Fc1cc(Cl)ccc1Nc1ccnc2cc(-c3ccc(CN4CCNCC4)o3)ccc12
2. COc1cc(NC(=O)c2cc([N+](=O)[O-])ccc2NC(=O)CNC2CCCCC2C)cc(OC)c1 (centres undefined)
3. Cc1cnc(NCC2CCCCC2)nc1N[C@@H](CC(C)C)C(=O)Nc1ccccc1
4. O=C(Nc1cccc(CN2CCCN(Cc3cccnc3)CC2)c1)c1cc2ccccc2s1
5. Cn1nc(-c2cccc(CNCc3ccccc3)c2)c2cnc(NC3CCCC3)nc21

OUTPUT:
1
3
-2
1
1
